Reference source for all entries: patent US11530244B2

- testedOn: PCSK9 (Homo sapiens (Human), UniProt Q8NBP7)
- Sequence (Q8NBP7 153-692): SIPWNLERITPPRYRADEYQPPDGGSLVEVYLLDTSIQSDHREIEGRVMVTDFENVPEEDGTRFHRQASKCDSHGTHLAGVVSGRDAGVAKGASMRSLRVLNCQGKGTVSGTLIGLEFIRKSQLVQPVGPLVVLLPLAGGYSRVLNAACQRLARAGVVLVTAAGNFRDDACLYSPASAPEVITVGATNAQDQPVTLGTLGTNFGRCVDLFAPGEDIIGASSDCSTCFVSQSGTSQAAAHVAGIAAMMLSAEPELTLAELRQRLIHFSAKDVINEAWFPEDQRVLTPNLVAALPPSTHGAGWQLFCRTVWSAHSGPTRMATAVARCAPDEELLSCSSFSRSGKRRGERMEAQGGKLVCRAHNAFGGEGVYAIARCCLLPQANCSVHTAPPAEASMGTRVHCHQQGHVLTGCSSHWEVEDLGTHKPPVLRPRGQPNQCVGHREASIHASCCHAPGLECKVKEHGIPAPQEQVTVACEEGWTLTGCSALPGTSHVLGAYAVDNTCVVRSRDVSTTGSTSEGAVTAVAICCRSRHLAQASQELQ
- assayComment: PCSK9 Alexa FRET Standard assay (displacement of AlexaFluor647 tagged cyclic peptide Reagent A)
- Format: binding
- conditionInfo: PCSK9 Alexa FRET Standard assay, 0.5 nM PCSK9, 20 nM AF cyclic peptide Reagent A; read-out: IC50
pIC50: −log10 of the molar value. Starred links: 1 amine or outer side, 2 acyl side, 3 side chain; linkers in the order of their positions; H or OH if unused. Positions of bridges follow the written chain, without caps; N, C: chain ends. Non-standard residues stand in square brackets, D forms with d. Residues, ends and D or L forms follow the SMILES beside them. Phe(4-COOH) = N[C@@H](Cc1ccc(C(=O)O)cc1)C(=O)O; Trp(5-F) = N[C@@H](Cc1c[nH]c2ccc(F)cc12)C(=O)O; Phac(3-amino) = O=C(Cc1cccc(N[*:1])c1)[*:2]; X33 = CC(C)C(N[*:1])c1ncc(C(=O)[*:2])[nH]1; Lys(Me3) = C[N+](C)(C)CCCC[C@H](N)C(=O)O; X4 = O=C(CCSCc1cccc(CSCCN[*:1])c1)[*:2]; mXylylene = c1cc(C[*:1])cc(C[*:2])c1; αMeP = C[C@@]1(C(=O)O)CCCN1; Mpa = O=C(O)CCS

{"compound": "C[C@@]12CCCN1C(=O)[C@H](Cc1ccc(O)cc1)NC(=O)CN1C(=O)[C@H](COc3ccccc31)NC(=O)[C@H](Cc1c[nH]c3ccc(F)cc13)NC(=O)[C@H](Cc1c[nH]c3ccc(F)cc13)NC(=O)CNC(=O)[C@H](CCCCN)NC(=O)CCSCc1cccc(c1)CSC[C@@H](C(N)=O)NC2=O", "pIC50": "7.00 to 9.96"}
{"compound": "COc1ccc(C[C@@H]2NC(=O)[C@H](Cc3cnc[nH]3)NC(=O)[C@H](CC(=O)O)NC(=O)[C@H](Cc3c[nH]c4ccc(F)cc34)NC(=O)[C@H](Cc3c[nH]c4ccc(F)cc34)NC(=O)[C@@H](C)NC(=O)[C@H](CCCC[N+](C)(C)C)NC(=O)CCSCc3cccc(c3)CSCCNC(=O)[C@]3(C)CCCN3C2=O)cc1 [Compound 461] (cyclo(DHY(Me)[αMeP][X4][Lys(Me3)][dA][Trp(5-F)][Trp(5-F)]))", "pIC50": "4.30 to 4.68"}
{"compound": "CC(C)C1NC(=O)CCSCc2cccc(c2)CSC[C@@H](C(N)=O)NC(=O)[C@]2(C)CCCN2C(=O)[C@H](Cc2ccc(O)cc2)NC(=O)[C@H](Cc2c[nH]cn2)NC(=O)[C@H](CC(=O)O)NC(=O)[C@H](Cc2c[nH]c3ccc(F)cc23)NC(=O)[C@H](Cc2c[nH]c3ccc(F)cc23)NC(=O)c2cnc1[nH]2 (some centres unmarked) [Compound 450] ([Mpa][X33][Trp(5-F)][Trp(5-F)]DHY[αMeP]C-NH2; linker 1-9 via mXylylene)", "pIC50": "6.00 to 7.00"}
{"compound": "COc1ccc(C[C@@H]2NC(=O)[C@H](Cc3cnc[nH]3)NC(=O)[C@H](CC(=O)O)NC(=O)[C@H](Cc3c[nH]c4ccc(F)cc34)NC(=O)[C@H](Cc3c[nH]c4ccc(F)cc34)NC(=O)[C@@H](C)NC(=O)[C@H](NC(C)=O)CCCCNC(=O)c3ccc(cc3)C[C@@H](C(N)=O)NC(=O)[C@]3(C)CCCN3C2=O)cc1 [Compound 341] (Ac-[dK][dA][Trp(5-F)][Trp(5-F)]DHY(Me)[αMeP][Phe(4-COOH)]-NH2; lactam 1-9)", "pIC50": "4.30 to 4.68"}
{"compound": "COc1ccc(C[C@@H]2NC(=O)[C@H](Cc3cnc[nH]3)NC(=O)[C@H](CC(=O)O)NC(=O)[C@H](Cc3c[nH]c4ccc(F)cc34)NC(=O)[C@H](Cc3c[nH]c4ccc(F)cc34)NC(=O)[C@@H](C)NC(=O)Cc3cccc(c3)NC(=O)C[C@@H](C(=O)O)NC(=O)[C@]3(C)CCCN3C2=O)cc1 [Compound 413] ([Phac(3-amino)][dA][Trp(5-F)][Trp(5-F)]DHY(Me)[αMeP]D-OH; lactam N-9)", "pIC50": "4.30 to 4.68"}

====

// pIC50 lookup, one value per entry
- testedOn: UniProt Q8NBP7
- assayComment: PCSK9 Alexa FRET Standard assay (displacement of AlexaFluor647 tagged cyclic peptide Reagent A)
- Format: binding
- conditionInfo: PCSK9 Alexa FRET Standard assay, 0.5 nM PCSK9, 20 nM AF cyclic peptide Reagent A; read-out: IC50
pIC50: −log10 of the molar value. Starred links: 1 amine or outer side, 2 acyl side, 3 side chain; linkers in the order of their positions; H or OH if unused. Positions of bridges follow the written chain, without caps; N, C: chain ends. Non-standard residues stand in square brackets, D forms with d. Residues, ends and D or L forms follow the SMILES beside them. Trp(5-F) = N[C@@H](Cc1c[nH]c2ccc(F)cc12)C(=O)O; Asp(3,3-Me2) = CC(C)(C(=O)O)[C@H](N)C(=O)O; mXylylene(5-F) = Fc1cc(C[*:1])cc(C[*:2])c1; X4 = O=C(CCSCc1cccc(CSCCN[*:1])c1)[*:2]; mXylylene = c1cc(C[*:1])cc(C[*:2])c1; NMeY = CN[C@@H](Cc1ccc(O)cc1)C(=O)O; X6 = O=C(Cc1ccc(CN[*:2])cc1)[*:1]; Aad = N[C@@H](CCCC(=O)O)C(=O)O; αMeP = C[C@@]1(C(=O)O)CCCN1; Ac3c = NC1(C(=O)O)CC1; Mpa = O=C(O)CCS
resultType: pIC50

{"compound": "C[C@@]12CCCN1C(=O)[C@H](Cc1ccc(O)cc1)NC(=O)[C@H](Cc1c[nH]cn1)NC(=O)[C@H](CC(=O)O)NC(=O)[C@H](Cc1c[nH]c3ccc(F)cc13)NC(=O)[C@H](Cc1c[nH]c3ccc(F)cc13)NC(=O)CNC(=O)C1(CC1)NC(=O)CCSCc1cccc(c1)CSC[C@@H](C(N)=O)NC2=O [Compound 281] ([Mpa][Ac3c]G[Trp(5-F)][Trp(5-F)]DHY[αMeP]C-NH2; linker 1-10 via mXylylene)", "resultType": "pIC50", "endpointValue": "6.00 to 7.00"}
{"compound": "COc1ccc(C[C@@H]2NC(=O)[C@H]([C@@H](C)O)NC(=O)[C@@H]3CCCN3C(=O)[C@H](Cc3c[nH]c4ccc(F)cc34)NC(=O)[C@H](Cc3c[nH]c4ccc(F)cc34)NC(=O)[C@@H](C)NC(=O)[C@H](CCCCN)NC(=O)CCSCc3cc(F)cc(c3)CSC[C@@H](C(N)=O)NC(=O)[C@]3(C)CCCN3C2=O)cc1 [Compound 041] ([Mpa]K[dA][Trp(5-F)][Trp(5-F)]PTY(Me)[αMeP]C-NH2; linker 1-10 via mXylylene(5-F))", "resultType": "pIC50", "endpointValue": "4.30 to 4.68"}
{"compound": "COc1ccc(C[C@@H]2NC(=O)[C@H](Cc3cnc[nH]3)NC(=O)[C@H](CC(=O)O)NC(=O)[C@H](Cc3c[nH]c4ccc(F)cc34)NC(=O)[C@H](Cc3c[nH]c4ccc(F)cc34)NC(=O)[C@@H](C)NC(=O)[C@H](NC(C)=O)CCCCNC(=O)Cc3ccc(cc3)CNC(=O)CCC[C@@H](C(N)=O)NC(=O)[C@]3(C)CCCN3C2=O)cc1 [Compound 523] (Ac-[dK][dA][Trp(5-F)][Trp(5-F)]DHY(Me)[αMeP][Aad]-NH2; linker 1-9 via X6)", "resultType": "pIC50", "endpointValue": "6.00 to 7.00"}
{"compound": "CC(=O)N[C@@H]1CCCC/C=C/CO[C@H]2C[C@@H](C(N)=O)N(C2)C(=O)[C@H](Cc2ccc(O)cc2)NC(=O)[C@H](Cc2cnc[nH]2)NC(=O)[C@H](CC(=O)O)NC(=O)[C@H](Cc2c[nH]c3ccc(F)cc23)NC(=O)[C@H](Cc2c[nH]c3ccc(F)cc23)NC(=O)CCNC1=O [Compound 418]", "resultType": "pIC50", "endpointValue": "4.30 to 4.68"}
{"compound": "C[C@H]1NC(=O)[C@H](CCCCN)NC(=O)CCSCc2cccc(c2)CSCCNC(=O)[C@]2(C)CCCN2C(=O)[C@H](Cc2ccc(O)cc2)N(C)C(=O)[C@H](Cc2c[nH]cn2)NC(=O)[C@H](C(C)(C)C(=O)O)NC(=O)[C@H](Cc2c[nH]c3ccc(F)cc23)NC(=O)[C@H](Cc2c[nH]c3ccc(F)cc23)NC1=O [Compound 383] (cyclo(H[NMeY][αMeP][X4]K[dA][Trp(5-F)][Trp(5-F)][Asp(3,3-Me2)]))", "resultType": "pIC50", "endpointValue": "6.00 to 7.00"}
{"compound": "COc1ccc(C[C@@H]2NC(=O)[C@H]([C@H](C)O)NC(=O)[C@@H]3CCCc4cn(nn4)CC[C@H](NC(=O)[C@@H](C)NC(=O)[C@H](C)NC(=O)CCSCc4cccc(c4)CSCCNC(=O)[C@]4(C)CCCN4C2=O)C(=O)N[C@@H](Cc2c[nH]c4ccc(F)cc24)C(=O)N3)cc1 [Compound 525]", "resultType": "pIC50", "endpointValue": "6.00 to 7.00"}
